Attribution: ChEMBL document CHEMBL1201862

- Test system: SK-MEL-5
- assay protocol: NCI tumour cell line growth inhibition, 48 h
Active and inactive are the calls of the source. Cut-off read from the data, not from the text of the source: active = GI50 up to about 1.1 µM and inactive = higher.
Measured GI50, listed per entry for reference.

Record excerpt, results attached:
CC(=O)NCCCCCCNC(C)=O [HEXAMETHYLENEBISACETAMIDE] :: 6700 µM (inactive)
CCC(C)C(C(=O)N/N=C1/SCC(=O)N1c1ccccc1)C(=O)N/N=C1/SCC(=O)N1c1ccccc1 (centres undefined) :: 22 µM (inactive)
Cc1cc2c(=O)cc(-c3cccs3)oc2c(C(=O)O)c1C :: > 100 µM (inactive)

query: Please report GI50 with SK-MEL-5 for item C=C(C)[C@@H]1CC[C@@]2(C)[C@H]1[C@H]1CCC3[C@@]4(C)CC[C@H](O)C(C)(C)[C@@H]4CC[C@@]3(C)[C@]1(C)C[C@@H]2O (some centres undefined) [CALENDULADIOL] .
result: 19.1 µM (inactive)

----------
- Tested on: HCC 2998
- assay protocol: NCI tumour cell line growth inhibition, 48 h
Activity calls are given as the source filed them. No stated cut-off is given here; in the data, active = GI50 up to about 1.1 µM and inactive = higher.
Returns: one label drawn from TRUE = active, FALSE = inactive

COc1ccc(C(c2ccc3c(c2)OCO3)N2C(=O)CCC2C(=O)O)cc1 (configuration not stated) :: FALSE
CC(=O)[C@H]1[C@H](O)C[C@@]2(C)[C@@H]3CCc4cc(O)c(OC5OC(CO)C(O)C(O)C5O)cc4C3(C)C(=O)C[C@]12C (some centres not stated) :: FALSE

query: In this assay, the call recorded for Clc1ccc(Nc2nnc(CNc3ccc(-c4nnc(Nc5ccc(Cl)cc5)o4)cc3)o2)cc1 was what?
result: FALSE

----------
- System: PC-3
- assay protocol: NCI tumour cell line growth inhibition, 48 h
Calls of active or inactive are those of the source. No stated cut-off is given here; in the data, active = GI50 up to about 1.1 µM and inactive = higher.
measurement name: GI50

NNC(=O)C(O)C(O)C(O)CO (stereo unspecified) :: > 100 µM (inactive)

query: Provide GI50, recorded with PC-3, of C=C1OC(=O)[C@]2([C@@H](/C=C/C)C=CC(=O)[C@H]2O)[C@@H]1O
result: > 100 µM (inactive)

query: Answer briefly: GI50 recorded on PC-3 for Cc1cccc(/C=N/NC(=S)Nc2ccc(Cl)cc2)n1
result: 1.94 µM (inactive)

query: # return GI50 for CN1CCN(c2ccc3nc(-c4cc(O)c5c(nc(CO)n5C)c4O)[nH]c3n2)CC1 , test system: PC-3
result: 32.3 µM (inactive)

query: Specify GI50 for N=C(N)c1ccc(OCCCCCOc2ccc(C(=N)N)cc2)cc1 , system PC-3.
result: 12.1 µM (inactive)

query: State the measured GI50 (PC-3) of O=Cc1cc(C(=O)OCc2ccccc2)n(S(=O)(=O)c2ccccc2)c1
result: 16.6 µM (inactive)

----------
- Test system: HCT-116
- assay protocol: NCI tumour cell line growth inhibition, 48 h
The source made the active and inactive calls. No stated cut-off is given here; in the data, active = GI50 up to about 1.1 µM and inactive = higher.
Each entry below carries its reported GI50.

Solved cases (8 shown):
COc1cc([C@@H]2c3cc4c(cc3[C@@H](NCCNCCO)[C@H]3COC(=O)[C@H]23)OCO4)cc(OC)c1O :: 2 µM (inactive)
O=C(O)Cc1c(-c2ccc([N+](=O)[O-])cc2)c(=O)oc2cc(O)ccc12 :: 26.1 µM (inactive)
[N-]=[N+]=Nc1c(C=O)c(=O)n2c3c(cccc13)CCC2 :: 3.15 µM (inactive)
CC(C)(C)C1CCC2c3c([nH]c4ccccc34)C3C(=O)N(c4ccc(Br)cc4)C(=O)C3C2C1 (stereo unspecified) :: 32.9 µM (inactive)
S=P(c1ccccc1)(c1ccccc1)C1(C2(P(=S)(c3ccccc3)c3ccccc3)CC2)CC1 :: > 100 µM (inactive)
C=C1C(=O)OC2C/C(C)=C/CC/C(C)=C/CCC3(COC(C)=O)OC3CC12 (stereo unspecified) :: 1.84 µM (inactive)
Cc1cccc(C(C)(C)C)c1NC(=O)C(=O)Cc1nc2ccccc2s1 :: > 100 µM (inactive)
COc1ccc(/C=N/Nc2nc(-c3cc4oc(=O)n(C)c4cc3Cl)cs2)cc1OC :: 9.04 µM (inactive)

query: Check HCT-116 data and give GI50 for c1ccc(-c2nn(-c3ccccc3)[n+](-c3ccccc3)n2)cc1 .
result: 6.5 µM (inactive)

query: State the measured GI50 (HCT-116) of CCCCCc1cccc(=O)o1
result: > 100 µM (inactive)

query: Fill: GI50 (HCT-116) for this compound CN(C(=O)c1ccc(OCCCC(=O)O)c(Cl)c1Cl)C1CCCC1
result: > 62.8 µM (inactive)

query: Write GI50 of Nc1nnc(N)n1NC(=O)C(=O)Nc1ccc([N+](=O)[O-])cc1 ; system used: HCT-116
result: > 100 µM (inactive)

query: Find GI50 for O=[N+]([O-])c1cccc(/C=N/NC2=CS(=O)(=O)C=C2)c1 on HCT-116 and write it down.
result: > 100 µM (inactive)

query: For HCT-116, give GI50 of the listed compound: O=C1Oc2ccc([N+](=O)[O-])cc2N/C1=C\C(=O)c1ccccc1
result: > 100 µM (inactive)

query: # return GI50 of Cc1cc2c(=O)cc(-c3ccc(F)cc3)oc2c(C(=O)O)c1C (system: HCT-116)
result: > 100 µM (inactive)

----------
- Test system: HCT-116
- assay protocol: NCI tumour cell line growth inhibition, 48 h
The source made the active and inactive calls. No stated cut-off is given here; in the data, active = GI50 up to about 1.1 µM and inactive = higher.
measurement name: GI50

Take a look at these entries with their results.
COc1cccc(CCCNC(=O)Cc2ccccc2CO)c1 :: > 100 µM (inactive)
COc1ccc(-c2cc(=O)c3c(OC)c(OC)c(OC)cc3o2)cc1 :: 32.6 µM (inactive)
O=S(=O)(/C=C/C(=C/c1ccccc1)S(=O)(=O)c1ccccc1)c1ccccc1 :: 1.72 µM (inactive)

query: Give recorded GI50. CNC(=O)C1CCCN1C(=O)C(Cc1c[nH]cn1)NC(=O)C1CCC(=O)N1 (stereo not given)
result: > 100 µM (inactive)

query: Please give measured GI50 of the following entry: Nc1nc(NCC2(CO)CC2)cc(=O)[nH]1
result: > 100 µM (inactive)

query: Look up and state reported GI50 for Nc1nn(CC(O)CO)c(=O)s1 (stereo not given)
result: > 100 µM (inactive)

query: State its GI50: CCN1CCC(O)(c2ccc(Oc3ccccc3)cc2)C(C(=O)c2ccc(Oc3ccccc3)cc2)C1 (stereo not given)
result: 9.27 µM (inactive)

----------
- Tested on: SK-MEL-2
- assay protocol: NCI tumour cell line growth inhibition, 48 h
Calls of active or inactive are those of the source. Rule as the data show it: active = GI50 up to about 1.1 µM and inactive = higher.
Choose the fitting class; nothing outside class 1 (active), class 0 (inactive) is accepted.

COC(=O)C1(CCCCl)CCCN1C(=O)OC(C)(C)C (stereo unspecified) :: class 0
CCOC(=O)c1nc2ccccc2nc1Oc1cc(OC)c(OC)c(OC)c1 :: class 0
Clc1ccc(Cc2nc3cc4ccccc4cc3[nH]2)cc1Cl :: class 0
O=[N+]([O-])c1ccc(-[n+]2ccc3ccccc3c2)c([N+](=O)[O-])c1 :: class 0
CC1(C)OC(=S)N(c2ccccc2)C12C=Cc1cc3ccccc3nc1S2 (stereo unspecified) :: class 0
CCOC(=O)C1S/C(=N\c2ccc(Cl)c(Cl)c2)N=C1C (stereo unspecified) :: class 0
Nc1nc(N)c2ncn(-c3ccc(Cl)c(Cl)c3)c2n1 :: class 0
C/C(=C/c1ccccc1)CN(C(=O)/C=C\Sc1ccccc1)C(C)(C)C :: class 0
Cc1ccc(S(=O)(=O)N/N=C(/CC(=O)c2c(C)[n+]([O-])c3ccccc3[n+]2[O-])C(=O)Nc2ccccc2C)cc1 :: class 0
COc1ccc2c(c1)CN1C(=N2)CSC1c1c(Cl)cccc1[N+](=O)[O-] (stereo unspecified) :: class 0

query: # fetch the recorded call for COc1cccc(-c2cc(O)c3cc(C)cnc3n2)c1 here
result: class 1

query: Short answer needed: outcome of this test for Clc1ccccc1-c1nnc2c(-c3ccccc3)nc3ccccc3n12 ?
result: class 0

query: Short answer needed: outcome of this test for Cc1cccc2c1NC(c1c(C)[nH]c3ccccc13)C2 (stereo unspecified) ?
result: class 0

query: Could you please tell me the result logged for Cc1ccc(N(C(=O)CC(=O)N2N=C(c3ccccc3)C(/N=N/c3ccc([N+](=O)[O-])cc3)C2=O)C(=O)c2ccc(Cl)cc2)cc1 (stereo unspecified) in this assay?
result: class 0

query: Test call for this molecule, please: [N-]=[N+]=NC1=C(N=[N+]=[N-])c2cccc3cccc(c23)C1=O
result: class 0

query: Hi, sorry to bother you, what did the test record for CN(C)CCCNC(=O)c1cc2/c(=C\c3ccc(N(C)C)cc3)c3ccccc3n2[n+]1C ?
result: class 0

query: Dear all, I need the recorded test outcome for COC1C=CC(O)C(CO)O1 (stereo unspecified) , thank you.
result: class 0

query: What did the test return for C[C@H](CCC(=O)NCCS(=O)(=O)O)[C@H]1CC[C@H]2[C@@H]3CC[C@@H]4C[C@H](O)CC[C@]4(C)[C@H]3CC[C@]12C ?
result: class 0

query: Returns: the outcome recorded for Cc1cc(S(=O)(=O)O)ccc1/N=N/c1c(O)ccc2ccccc12 in this assay.
result: class 0

query: Could you please tell me the result logged for O=C1C2Cc3ccccc3CN2C(=O)N1CN1CCCCC1 (stereo unspecified) in this assay?
result: class 0

query: Hello, I am checking results. What call was entered for O=NN(CCCl)C(=O)N[C@H]1CC[C@@H](C(=O)O)CC1 ?
result: class 0
